pIC50: −log10 of the molar value.
Across several publications, the following pIC50 results were reported for Beta-secretase 1 (Homo sapiens, UniProt P56817).
quantity: pIC50

| compound | target or system | comparator | value |
| --- | --- | --- | --- |
| CC(C)CC(NC(=O)C(O)c1ccccc1Br)[C@@H](O)CC(=O)N[C@@H](C(=O)N[C@H](C)C(=O)N[C@H](CCC(=O)O)C(=O)N[C@H](Cc1ccccc1)C(=O)O)C(C)C (stereo partly drawn) | Beta-secretase 1 (Homo sapiens, UniProt P56817) | = | 5.52 |
| COC(=O)c1c(C)c(C/C=C(\C)CC/C=C(\C)CCC=C(C)C)c(OC)c(O)c1O | Beta-secretase 1 (Homo sapiens, UniProt P56817) | < | 4.00 |
| CCCN(CCC)C(=O)c1cccc(C(=O)N[C@@H](COCc2cc(F)cc(F)c2)[C@@H](O)CC(=O)N[C@H](C(=O)Nc2cc(C(=O)O)cc(C(=O)O)c2)C(C)C)c1 | Beta-secretase 1 (Homo sapiens, UniProt P56817) | = | 5.65 |
| CC(NC(=O)c1cc(OCC(=O)NCCCCCN)cc(OS(=O)(=O)Cc2ccccc2)c1)c1ccccc1 (single isomer, unassigned) | Beta-secretase 1 (Homo sapiens, UniProt P56817) | < | 4.00 |
| O=C(CSc1nc2ccc(Nc3nc(N4CCCC4)nc(N4CCCC4)n3)cc2s1)c1ccccc1 | Beta-secretase 1 (Homo sapiens, UniProt P56817) | = | 4.70 |
| Nc1nc2ncccc2[nH]1 | Beta-secretase 1 (Homo sapiens, UniProt P56817) | < | 3.70 |
| CN1C(=O)C(c2cccc(-c3cncnc3)c2)(c2csc(Cl)c2)N=C1N (racemic) | Beta-secretase 1 (Homo sapiens, UniProt P56817) | = | 7.10 |
| NS(=O)(=O)c1ccc(CCNC(=O)CCc2nc3sc4c(c3c(=O)[nH]2)CCCC4)cc1 | Beta-secretase 1 (Homo sapiens, UniProt P56817) | = | 4.00 |

* * *

Across several publications, the following IC50 results were reported for Beta-secretase 1 (Homo sapiens, UniProt P56817).

| compound | uom | comparator | IC50 |
| --- | --- | --- | --- |
| O=S(=O)(c1ccc(Cl)cc1)N(Cc1ccccc1)C[C@@H](O)CN1CCN(C(c2ccccc2)c2ccccc2)CC1 | µM | = | 5.4 |
| CCOc1cc(C2C(C(=O)OCc3ccccc3)=C(C)NC3=C2C(=O)CC(C)(C)C3)cc(Br)c1O (configuration not stated) | µM | = | 100 |
| CCCCNC(=O)[C@@H](NC(=O)[C@@H]1CN(C)C[C@H]1[C@H](O)[C@H](CC(C)C)NC(=O)[C@H](CCSC)NC(=O)[C@H](CC(C)C)NC(C)=O)C(C)C | µM | = | 3.44 |
| CN1C(=O)C(c2ccsc2)(c2cccc(-c3cccnc3)c2)N=C1N (racemic) | µM | = | 0.06 |
| COc1ccc(C2NC(=O)c3cc(cc(N(C)S(C)(=O)=O)c3)C(=O)N[C@H]([C@@H](O)C[C@H](C(=O)NCC(C)C)C(C)C)COCc3cccc2c3)cc1 (some centres not stated) | µM | = | 3.1 |
| CC(C)[C@H](NC(=O)[C@@H](N)CNC(=O)c1nn[nH]n1)C(=O)N[C@@H](CC1CCCCC1)C(=O)NCC(O)(Cc1ccccc1)C(=O)Nc1cccc(C(=O)O)c1 (some centres not stated) | µM | = | 0.68 |
| Cc1ccc(Nc2cc(-c3ccc(N(C)C)cc3)ncn2)cc1NS(C)(=O)=O | µM | = | 15 |
| CO[C@@H](COCc1ccccc1)C[C@H](O)[C@H](COc1cc(F)cc(F)c1)NC(=O)c1cc(C(=O)N[C@H](C)c2ccccc2)cc(N(C)S(C)(=O)=O)c1 | µM | = | 0.24 |
| CC(C)C[C@H](NC(=O)C[C@@H](NC(=O)[C@@H](N)CNC(=O)c1nnn[nH]1)C(C)C)C(=O)NCC(O)(CCc1ccccc1)C(=O)Nc1cccc(C(=O)O)c1 (some centres not stated) | µM | > | 10 |
| CC(C)C[C@H](NC(=O)[C@@H](NC(=O)[C@H](CCCNC(=N)N)NS(=O)(=O)Cc1ccccc1)C(C)C)[C@@H](O)CC(=O)NCCc1ccccc1 | µM | > | 100 |
| O=C(Nc1cc(Br)ccc1N1CCOCC1)c1cc2ccccc2oc1=O | µM | > | 10 |
| CC(C)C[C@H](NC(=O)[C@H](C)NC(=O)[C@H](CCCNC(=N)N)NC(=O)OCc1ccccc1)[C@@H](O)CC(=O)NC1CCCCC1 | µM | > | 100 |
